Tested on: UO-31 renal
METHOD: NCI tumour cell line growth inhibition, 48 h
MEASUREMENT LABEL: TGI

# MOLECULE, TGI
records = [
    ("CCOC(=O)N/N=C/C1=NN(C(=O)OCC)S(=O)C1C (stereo unspecified)", "> 100 µM"),
    ("COc1cc(S(=O)(=O)N/N=C/C=C/c2ccccc2)c(OC)cc1NC(C)=O", "> 100 µM"),
    ("Cc1ccc2c(=O)c(-c3nnsn3)c[nH]c2n1", "> 100 µM"),
    ("CC1C(=O)CCC1C(Sc1ccccc1)(Sc1ccccc1)Sc1ccccc1 (stereo unspecified)", "5.9 µM"),
    ("C[C@@]12C[C@@H](c3ccccc3O1)N1CCSC1=N2", "> 100 µM"),
]

Need TGI, item COc1ccc(C2Cc3cc(OC)c(OC)c(OC)c3C2=O)cc1 (stereo unspecified) > 100 µM

Need TGI, item c1ccc2c(c1)nnn1c3cnccc3nc21 > 100 µM

Need TGI, item Nn1c(-c2ccccc2Nc2ccccc2-c2n[nH]c(=S)n2N)n[nH]c1=S > 50 µM

Need TGI, item O=[N+]([O-])c1ccccc1S(=O)(=O)c1ccccc1[N+](=O)[O-] > 100 µM

Need TGI, item CCOC(=O)c1c(NS(=O)(=O)c2ccc(Br)cc2)sc2c1CCCC2 15.7 µM

Need TGI, item C=CC[Se]C(=O)c1ccccc1OC(C)=O 2.81 µM

====

Tested on: SR leukemia
METHOD: NCI tumour cell line growth inhibition, 48 h; in the data active = GI50 below about 0.43 µM; inactive = the rest
Please reply with one of these outcomes: Yes for active, No for inactive

Worked examples follow.
# COMPOUND, SYSTEM, ASSIGNED CLASS
rows = [
    ("O=Cc1ncc(-c2ccc(C(F)(F)F)cc2)c(NC2CCCCCC2)n1", "SR leukemia", "No"),
    ("Clc1ccc(N/N=C/c2ccccn2)nc1", "SR leukemia", "Yes"),
    ("O=C(/C=C/c1ccccc1O)c1ccccc1", "SR leukemia", "No"),
    ("Cc1nc(NC(=O)COc2cccc(/C=C3\\COc4ccccc4C3=O)c2)sc1C", "SR leukemia", "No"),
    ("Cn1c(=O)c(Sc2ccccc2F)cc2cnc(NC3CCOCC3)nc21", "SR leukemia", "No"),
    ("O=C(c1ccc(F)c(F)c1Nc1ccc(I)cc1F)N1CC(O)([C@H]2CCCCN2)C1", "SR leukemia", "No"),
    ("O=C1OCC2=C1C(c1ccccc1)c1cc3c(cc1N2CCO)CCC3 (centres undefined)", "SR leukemia", "Yes"),
    ("O=[N+]([O-])c1ccc(Oc2cccnc2)c([N+](=O)[O-])c1", "SR leukemia", "No"),
    ("CC(C)[C@@H]1NC(=O)[C@]2(C)CSC(=N2)c2csc(n2)CNC(=O)C[C@@H](/C=C/CCS)OC1=O", "SR leukemia", "Yes"),
    ("O=C(Nc1cccnc1)c1cccs1", "SR leukemia", "No"),
]

For C=CC[Se]C(=O)c1ccccc1OC(C)=O , what call appears in the results of this test? No

For COc1ccc(S(=O)(=O)Nc2cc(/C=C\c3cc(OC)c(OC)c(OC)c3)cc(OC)c2OC)cc1OC , what call appears in the results of this test? No

For O=C1OCC2=C1C(c1cccc([N+](=O)[O-])c1)c1cc3c(cc1N2CCO)CCC3 (centres undefined) , what call appears in the results of this test? Yes

For C[C@H]1O[C@@H](O[C@H]2[C@@H](O)C[C@H](O[C@H]3[C@@H](O)C[C@H](O[C@H]4CC[C@]5(C)C6C[C@@H](O)[C@]7(C)[C@@H](C8=CC(=O)OC8)CC[C@]7(O)C6CC[C@@H]5C4)O[C@@H]3C)O[C@@H]2C)C[C@H](O)[C@@H]1O (some centres undefined) , what call appears in the results of this test? Yes
